- TEST_DESCRIPTION: Pharmacokinetics after intra-duodenal injection (ID) in anesthetized rats, model mimicking enteric-coated oral dosage form, plasma LC-MS
- Assay type: in vivo, rat
- STATED_CONDITIONS: rat, plasma, pH 3.5, ID 0.3 ml C [10 mg/ml, Captopril 5 mg/ml, 10 mg/ml LLC, 400 mM Citrate pH 3.5, 150 mM NaCl]; time point 10 min; Average; read-out: Angiotensin (1-7) concentration
METRIC_NAME: level at 10 min (ng/mL)
The answer is to be given in ng/mL; state only the numeric part.

Q. Need level at 10 min of `CC[C@H](C)[C@H](NC(=O)[C@H](Cc1ccc(O)cc1)NC(=O)[C@@H](NC(=O)[C@H](CCCNC(=N)N)NC(=O)[C@@H](N)CC(=O)O)C(C)C)C(=O)N[C@@H](Cc1c[nH]cn1)C(=O)N1CCC[C@H]1C(=O)O` , thanks.
A. 424

###

- TEST_DESCRIPTION: Pharmacokinetics after subcutaneous (SC) administration of angiotensin (1-7) in PBS, plasma LC-MS
- Format: in vivo, female Sprague-Dawley rats
- STATED_CONDITIONS: female, Sprague-Dawley, rat, plasma, 3 mg; SC 0.3 mL of 10 mg/mL A(1-7) in PBS; time point 90 min; Average; read-out: Angiotensin (1-7) concentration
METRIC_NAME: level at 1.5 h (ng/mL)
The answer is to be given in ng/mL; state only the numeric part.

Q. Need level at 1.5 h of `CC[C@H](C)[C@H](NC(=O)[C@H](Cc1ccc(O)cc1)NC(=O)[C@@H](NC(=O)[C@H](CCCNC(=N)N)NC(=O)[C@@H](N)CC(=O)O)C(C)C)C(=O)N[C@@H](Cc1c[nH]cn1)C(=O)N1CCC[C@H]1C(=O)O` , thanks.
A. 8.38

###

- TEST_DESCRIPTION: Pharmacokinetics after intra-duodenal injection (ID) in anesthetized rats, model mimicking enteric-coated oral dosage form, plasma LC-MS
- Type: in vivo, rat
- STATED_CONDITIONS: rat, plasma, pH 3.5, ID 0.3 ml C [10 mg/ml, Captopril 0.5 mg/ml, 10 mg/ml LLC, 400 mM Citrate pH 3.5, 150 mM NaCl]; time point 40 min; Average; read-out: Angiotensin (1-7) concentration
METRIC_NAME: level at 40 min (ng/mL)
The answer is to be given in ng/mL; state only the numeric part.

Q. Need level at 40 min of `CC[C@H](C)[C@H](NC(=O)[C@H](Cc1ccc(O)cc1)NC(=O)[C@@H](NC(=O)[C@H](CCCNC(=N)N)NC(=O)[C@@H](N)CC(=O)O)C(C)C)C(=O)N[C@@H](Cc1c[nH]cn1)C(=O)N1CCC[C@H]1C(=O)O` , thanks.
A. 13.9

###

- TEST_DESCRIPTION: Pharmacokinetics after intra-duodenal injection (ID) in anesthetized rats, model mimicking enteric-coated oral dosage form, plasma LC-MS
- Assay type: in vivo, rat
- STATED_CONDITIONS: rat, plasma, pH 3.5, ID 0.3 ml C [10 mg/ml, Captopril 0.5 mg/ml, 10 mg/ml LLC, 400 mM Citrate pH 3.5, 150 mM NaCl]; time point 60 min; Average; read-out: Angiotensin (1-7) concentration
METRIC_NAME: level at 1 h
Units required after the number.

Q. Need level at 1 h of CC[C@H](C)[C@H](NC(=O)[C@H](Cc1ccc(O)cc1)NC(=O)[C@@H](NC(=O)[C@H](CCCNC(=N)N)NC(=O)[C@@H](N)CC(=O)O)C(C)C)C(=O)N[C@@H](Cc1c[nH]cn1)C(=O)N1CCC[C@H]1C(=O)O [Angiotensin (1-7)] , thanks.
A. 14.4 ng/mL

###

- TEST_DESCRIPTION: Pharmacokinetics after intra-duodenal injection (ID) in anesthetized rats, model mimicking enteric-coated oral dosage form, plasma LC-MS
- Type: in vivo, rat
- STATED_CONDITIONS: rat, plasma, 3 mg per rat, pH 3.5, ID 0.3 ml B [10 mg/ml, 10 mg/ml LLC, 400 mM Citrate pH 3.5, 150 mM NaCl]; time point 10 min; Average; read-out: Angiotensin (1-7) concentration
METRIC_NAME: level at 10 min (ng/mL)
The answer is to be given in ng/mL; state only the numeric part.

Q. Need level at 10 min of `CC[C@H](C)[C@H](NC(=O)[C@H](Cc1ccc(O)cc1)NC(=O)[C@@H](NC(=O)[C@H](CCCNC(=N)N)NC(=O)[C@@H](N)CC(=O)O)C(C)C)C(=O)N[C@@H](Cc1c[nH]cn1)C(=O)N1CCC[C@H]1C(=O)O` , thanks.
A. 204

###

- TEST_DESCRIPTION: Pharmacokinetics after intra-duodenal injection (ID) in anesthetized rats, model mimicking enteric-coated oral dosage form, plasma LC-MS
- Format: in vivo, rat
- STATED_CONDITIONS: rat, plasma, 3 mg, ID 0.3 ml A [10 mg/ml in PBS]; time point 10 min; Average; read-out: Angiotensin (1-7) concentration
METRIC_NAME: level at 10 min (ng/mL)
The answer is to be given in ng/mL; state only the numeric part.

Q. Need level at 10 min of `CC[C@H](C)[C@H](NC(=O)[C@H](Cc1ccc(O)cc1)NC(=O)[C@@H](NC(=O)[C@H](CCCNC(=N)N)NC(=O)[C@@H](N)CC(=O)O)C(C)C)C(=O)N[C@@H](Cc1c[nH]cn1)C(=O)N1CCC[C@H]1C(=O)O` , thanks.
A. 2.85

###

- TEST_DESCRIPTION: Pharmacokinetics after intra-duodenal injection (ID) in anesthetized rats, model mimicking enteric-coated oral dosage form, plasma LC-MS
- Format: in vivo, rat
- STATED_CONDITIONS: rat, plasma, other: intra-duodenal injection (ID), 3 mg, pH 3.5, ID 0.3 ml B [10 mg/ml, 10 mg/ml LLC, 400 mM Citrate pH 3.5, 150 mM NaCl]; Mean PK Values (average of individual PK parameters); read-out: Cmax
METRIC_NAME: Cmax

Q. Need Cmax of `CC[C@H](C)[C@H](NC(=O)[C@H](Cc1ccc(O)cc1)NC(=O)[C@@H](NC(=O)[C@H](CCCNC(=N)N)NC(=O)[C@@H](N)CC(=O)O)C(C)C)C(=O)N[C@@H](Cc1c[nH]cn1)C(=O)N1CCC[C@H]1C(=O)O` , thanks.
A. 419 ng/mL

###

- TEST_DESCRIPTION: Pharmacokinetics after intra-duodenal injection (ID) in anesthetized rats, model mimicking enteric-coated oral dosage form, plasma LC-MS
- Type: in vivo, rat
- STATED_CONDITIONS: rat, plasma, other: intra-duodenal injection (ID), 3 mg, ID 0.3 ml A [10 mg/ml in PBS]; Mean PK Values (average of individual PK parameters); read-out: Half-Life
METRIC_NAME: Half-Life
Units required after the number.

Q. Need Half-Life of `CC[C@H](C)[C@H](NC(=O)[C@H](Cc1ccc(O)cc1)NC(=O)[C@@H](NC(=O)[C@H](CCCNC(=N)N)NC(=O)[C@@H](N)CC(=O)O)C(C)C)C(=O)N[C@@H](Cc1c[nH]cn1)C(=O)N1CCC[C@H]1C(=O)O` , thanks.
A. 38.9 min

###

- TEST_DESCRIPTION: Pharmacokinetics after intra-duodenal injection (ID) in anesthetized rats, model mimicking enteric-coated oral dosage form, plasma LC-MS
- Assay type: in vivo, rat
- STATED_CONDITIONS: rat, plasma, other: intra-duodenal injection (ID), 3 mg, ID 0.3 ml A [10 mg/ml in PBS]; Average (PK value of the mean concentrations); read-out: Half-Life
METRIC_NAME: Half-Life (h)
The answer is to be given in h; state only the numeric part.

Q. Need Half-Life of CC[C@H](C)[C@H](NC(=O)[C@H](Cc1ccc(O)cc1)NC(=O)[C@@H](NC(=O)[C@H](CCCNC(=N)N)NC(=O)[C@@H](N)CC(=O)O)C(C)C)C(=O)N[C@@H](Cc1c[nH]cn1)C(=O)N1CCC[C@H]1C(=O)O [Angiotensin (1-7)] , thanks.
A. 2.58

###

- TEST_DESCRIPTION: Pharmacokinetics after subcutaneous (SC) administration of angiotensin (1-7) in PBS, plasma LC-MS
- Format: in vivo, female Sprague-Dawley rats
- STATED_CONDITIONS: female, Sprague-Dawley, rat, plasma, sc, 3 mg, 0.3 mL of 10 mg/mL A(1-7) subcutaneous injection; three rats; range over the group; read-out: Tmax after administration
METRIC_NAME: Tmax

Q. Need Tmax of CC[C@H](C)[C@H](NC(=O)[C@H](Cc1ccc(O)cc1)NC(=O)[C@@H](NC(=O)[C@H](CCCNC(=N)N)NC(=O)[C@@H](N)CC(=O)O)C(C)C)C(=O)N[C@@H](Cc1c[nH]cn1)C(=O)N1CCC[C@H]1C(=O)O [Angiotensin (1-7)] , thanks.
A. 10 to 90 min
